target: M4 D78N/D112N (Homo sapiens, UniProt P08173, D112N/D78N); experiment: biochemical
Sequence (P08173 whole entry D78N/D112N, looked up): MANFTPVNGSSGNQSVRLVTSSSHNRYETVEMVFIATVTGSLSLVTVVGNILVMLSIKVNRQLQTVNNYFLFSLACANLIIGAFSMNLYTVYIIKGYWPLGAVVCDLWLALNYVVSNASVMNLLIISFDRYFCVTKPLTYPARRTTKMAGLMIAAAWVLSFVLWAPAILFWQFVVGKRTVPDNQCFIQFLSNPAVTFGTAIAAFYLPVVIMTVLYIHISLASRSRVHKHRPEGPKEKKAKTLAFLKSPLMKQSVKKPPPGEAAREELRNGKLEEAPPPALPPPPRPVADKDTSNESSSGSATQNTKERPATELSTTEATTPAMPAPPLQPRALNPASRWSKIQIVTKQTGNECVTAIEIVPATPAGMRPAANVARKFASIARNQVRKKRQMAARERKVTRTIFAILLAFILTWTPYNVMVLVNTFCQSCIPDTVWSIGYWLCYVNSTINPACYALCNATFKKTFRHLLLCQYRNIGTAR
endpointName: IC50 (µM)
# output: bare number, implied unit µM

Give the measured IC50 of `CN(CC#CCOC(=O)Nc1cccc(Cl)c1)CCBr` .
69.2

====

target: wild type M4 receptor (Homo sapiens, UniProt P08173); assay: biochemical; type: binding; conditions: average estimate of log K1
Sequence (P08173 whole entry): as the sequence (P08173 whole entry D78N/D112N, looked up) above, with N78D, N112D counted along it
endpointName: Kd (µM)
# output: bare number, implied unit µM

Give the measured Kd of CN(CC#CCOC(=O)Nc1cccc(Cl)c1)CCBr [BR384] .
8.71

====

target: M2 D69N/D103N (Homo sapiens, UniProt P08172, D103N/D69N); assay: biochemical
Sequence (P08172 whole entry D69N/D103N, looked up): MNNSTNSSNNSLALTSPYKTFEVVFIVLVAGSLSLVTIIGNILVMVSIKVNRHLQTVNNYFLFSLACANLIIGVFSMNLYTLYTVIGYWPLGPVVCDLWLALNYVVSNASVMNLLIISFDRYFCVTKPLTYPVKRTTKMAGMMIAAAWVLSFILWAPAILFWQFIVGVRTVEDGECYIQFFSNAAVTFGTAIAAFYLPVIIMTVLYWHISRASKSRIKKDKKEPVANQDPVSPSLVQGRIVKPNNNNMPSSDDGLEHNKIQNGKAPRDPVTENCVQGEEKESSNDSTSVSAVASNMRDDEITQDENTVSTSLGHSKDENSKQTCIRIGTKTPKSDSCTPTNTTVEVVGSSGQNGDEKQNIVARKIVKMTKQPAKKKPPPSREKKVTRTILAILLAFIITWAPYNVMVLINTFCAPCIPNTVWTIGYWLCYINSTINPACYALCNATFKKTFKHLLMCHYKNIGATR
endpointName: IC50 (µM)
# output: bare number, implied unit µM

Give the measured IC50 of `CN(CC#CCOC(=O)Nc1cccc(Cl)c1)CCBr` .
28.8

====

target: UniProtKB P08173; assay: biochemical; format: binding; conditions: log K1 (dissociation constant of the aziridinium ion)
endpointName: Kd (µM)
# output: bare number, implied unit µM

Query for UniProtKB P08173: what Kd does the record show for `CN(CC#CCOC(=O)Nc1cccc(Cl)c1)CCBr` ?
8.91

Reference source: paper PMC3855626
